From: patent US8114968

- target_desc: human MMP-12 (UniProt P39900 106-470)
- Sequence (P39900 106-470): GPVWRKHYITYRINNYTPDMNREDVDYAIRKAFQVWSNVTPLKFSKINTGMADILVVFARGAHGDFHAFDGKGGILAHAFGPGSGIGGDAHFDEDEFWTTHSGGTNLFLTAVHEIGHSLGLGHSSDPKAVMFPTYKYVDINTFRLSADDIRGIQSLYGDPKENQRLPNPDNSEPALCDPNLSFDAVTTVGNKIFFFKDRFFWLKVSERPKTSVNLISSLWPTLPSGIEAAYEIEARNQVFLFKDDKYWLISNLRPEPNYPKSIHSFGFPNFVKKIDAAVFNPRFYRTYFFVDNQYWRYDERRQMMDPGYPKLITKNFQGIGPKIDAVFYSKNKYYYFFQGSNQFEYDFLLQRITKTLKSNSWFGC
endpoint_label: pKd
Numbers only, as −log10 of the molar value.

Illustrative cases are given below, each with its answer.
{"binder": "539B-M0069-D10 (Fab, V domains shown) VH: EVQLLESGGGLVQPGGSLRLSCAASGFTFSLYHMHWVRQAPGKGLEWVSGIGPSGGWTIYADSVKGRFTISRDNSKNTLYLQMNSLRAEDTAVYYCAKDIRGAYSSGLFDYWGRGTLVTVSS VL: DIQMTQSPSSLSASVGDRVTITCRANQSIYTYLNWYQQKPGKAPELLIYAASSLQSGVPSRFSGSGSGTDFTLTISSLQPEDFATYYCQQAGIFGQGTKLEIK", "endpoint_label": "pKd", "endpoint_value": 8.24}
{"binder": "539B-M0071-H03 (Fab, V domains shown) VH: EVQLLESGGGLVQPGGSLRLSCAASGFTFSPYWMHWVRQAPGKGLEWVSGIGPSGGPTFYADSIKGRFTISRDNSKNTLYLQMNSLRAEDTAVYYCAKDIRGAYSSGLFDYWGRGTLVTVSS VL: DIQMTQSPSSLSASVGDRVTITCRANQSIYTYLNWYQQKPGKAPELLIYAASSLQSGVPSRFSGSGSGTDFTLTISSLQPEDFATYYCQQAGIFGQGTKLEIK", "endpoint_label": "pKd", "endpoint_value": 9.00}

API: the following record is the query input.
Prompt: What does the record list as pKd for 539B-M0008-H09 (format not stated) (antibody, V domains shown) VH: EVQLLESGGGLVQPGGSLRLSCAASGFTFSDYNMHWVRQAPGKGLEWVSYIGPSGGYTHYADSVKGRFTISRDNSKNTLYLQMNSLRAEDTAVYYCAKDIRGAYSSGLFDYWGRGTLVTVSS VL: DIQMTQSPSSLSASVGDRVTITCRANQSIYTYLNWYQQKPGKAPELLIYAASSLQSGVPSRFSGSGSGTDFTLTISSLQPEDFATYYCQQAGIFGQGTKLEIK ?
Completion: 7.74
